experiment: Tolerability in CD1 mice: body weight and organ weight (Example 43); format: in vivo; settings: 50 mg/kg s.c. twice per week for 6 weeks, at the end of the study
Strand notation (5' to 3'): a small letter for the sugar, then the base; units joined by * are phosphorothioate-linked, units joined directly phosphodiester-linked; [ ] holds rarer units or linkages, { } end groups; capitals alone tell only the bases. e = 2'-O-(2-methoxyethyl) (MOE); [5mC] = 5-methylcytosine; d = 2'-deoxy (DNA)
Consider the following substances and their measured body weight readings.
Write down the numeric answer in g and omit the unit.

// below: answered substances
INSERT INTO measurements (substance, attribute_measured, unit_abbrev, numeric_value) VALUES
  ('ISIS 449711: 3-8-3, 4-8-4, 2-10-2, 3-10-3 or 4-10-4 MOE microwalk gapmer (Table 46) (antisense eA*e[5mC]*dA*dG*dT*dT*dT*d[5mC]*dT*dG*dG*d[5mC]*eA*eG)', 'body weight', 'g', 42),
  ('ISIS 449708: 3-8-3, 4-8-4, 2-10-2, 3-10-3 or 4-10-4 MOE microwalk gapmer (Table 46) (antisense eA*e[5mC]*eA*dG*dT*dT*dT*d[5mC]*dT*dG*dG*e[5mC]*eA*eG)', 'body weight', 'g', 40),
  ('ISIS 449710: 3-8-3, 4-8-4, 2-10-2, 3-10-3 or 4-10-4 MOE microwalk gapmer (Table 46) (antisense e[5mC]*eA*e[5mC]*dA*dG*dT*dT*dT*d[5mC]*dT*dG*dG*d[5mC]*eA*eG*eG)', 'body weight', 'g', 42),
  ('ISIS 449709: 3-8-3, 4-8-4, 2-10-2, 3-10-3 or 4-10-4 MOE microwalk gapmer (Table 46) (antisense eG*e[5mC]*eA*e[5mC]*dA*dG*dT*dT*dT*d[5mC]*dT*dG*dG*d[5mC]*eA*eG*eG*e[5mC])', 'body weight', 'g', 40);

// next entry
q: Could you tell me which body weight is on file for ISIS 449707: 3-8-3, 4-8-4, 2-10-2, 3-10-3 or 4-10-4 MOE microwalk gapmer (Table 46) (antisense e[5mC]*eA*e[5mC]*eA*dG*dT*dT*dT*d[5mC]*dT*dG*dG*e[5mC]*eA*eG*eG) ?
a: 42

----------
assay: Tolerability in Sprague-Dawley rats: liver function (Example 35); conditions: plasma, 50 mg/kg s.c. twice per week for 6 weeks
Consider the following substances and their measured Bilirubin readings.
Quote the value and follow it with the unit of measurement.

// below: answered substances
INSERT INTO measurements (substance, result) VALUES
  ('ISIS 416864: MOE gapmer, nucleobases 1275 to 1318 of SEQ ID NO: 1 (Table 8) (antisense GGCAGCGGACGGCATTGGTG; MOE gapmer, wing and gap sizes not given here)', '3 mg/dL'),
  ('ISIS 416858: MOE gapmer, nucleobases 1275 to 1318 of SEQ ID NO: 1 (Table 8) (antisense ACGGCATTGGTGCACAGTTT; MOE gapmer, wing and gap sizes not given here)', '4 mg/dL'),
  ('ISIS 416850: MOE gapmer, nucleobases 1275 to 1318 of SEQ ID NO: 1 (Table 8) (antisense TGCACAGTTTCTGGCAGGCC; MOE gapmer, wing and gap sizes not given here)', '1 mg/dL'),
  ('ISIS 417002: MOE gapmer, nucleobases 1275 to 1318 of SEQ ID NO: 1 (Table 8) (antisense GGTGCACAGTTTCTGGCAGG; MOE gapmer, wing and gap sizes not given here)', '12 mg/dL');

q: Could you tell me which Bilirubin is on file for ISIS 416838: MOE gapmer, nucleobases 1018 to 1042 of SEQ ID NO: 1 (Table 6) (antisense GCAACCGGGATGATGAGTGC; MOE gapmer, wing and gap sizes not given here) ?
a: 4 mg/dL

----------
Consider the following substances and their measured platelet count readings.
test: Hematology assays in cynomolgus monkeys (Example 45); format: in vivo; details: day 85
Write down the numeric answer in µL⁻¹ and omit the unit.

// below: answered substances
INSERT INTO results (substance, attribute_measured, numeric_value) VALUES
  ('ISIS 416838: MOE gapmer, nucleobases 1018 to 1042 of SEQ ID NO: 1 (Table 6) (antisense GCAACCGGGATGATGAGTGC; MOE gapmer, wing and gap sizes not given here)', 'platelet count', 344000),
  ('ISIS 416858: MOE gapmer, nucleobases 1275 to 1318 of SEQ ID NO: 1 (Table 8) (antisense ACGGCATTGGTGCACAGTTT; MOE gapmer, wing and gap sizes not given here)', 'platelet count', 267000);

q: Could you tell me which platelet count is on file for ISIS 416864: MOE gapmer, nucleobases 1275 to 1318 of SEQ ID NO: 1 (Table 8) (antisense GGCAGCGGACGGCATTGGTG; MOE gapmer, wing and gap sizes not given here) ?
a: 387000

q: Could you tell me which platelet count is on file for ISIS 416850: MOE gapmer, nucleobases 1275 to 1318 of SEQ ID NO: 1 (Table 8) (antisense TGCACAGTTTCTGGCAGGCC; MOE gapmer, wing and gap sizes not given here) ?
a: 458000

q: Could you tell me which platelet count is on file for ISIS 417002: MOE gapmer, nucleobases 1275 to 1318 of SEQ ID NO: 1 (Table 8) (antisense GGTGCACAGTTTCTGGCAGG; MOE gapmer, wing and gap sizes not given here) ?
a: 418000

----------
system: Factor 11 protein; assay: Factor 11 protein in monkey plasma by sandwich ELISA (Example 46); format: in vivo, cynomolgus monkeys; settings: Day 38, plasma, 25 mg/kg subcutaneously
Strand notation (5' to 3'): a small letter for the sugar, then the base; units joined by * are phosphorothioate-linked, units joined directly phosphodiester-linked; [ ] holds rarer units or linkages, { } end groups; capitals alone tell only the bases. e = 2'-O-(2-methoxyethyl) (MOE); [5mC] = 5-methylcytosine; d = 2'-deoxy (DNA)
Consider the following substances and their measured Inhibition of Factor 11 protein relative to the PBS control (percentage reduction) readings.
Write down the numeric answer in % and omit the unit.

// below: answered substances
INSERT INTO assay_data (substance, numeric_value) VALUES
  ('449710 (antisense e[5mC]*eA*e[5mC]*dA*dG*dT*dT*dT*d[5mC]*dT*dG*dG*d[5mC]*eA*eG*eG) [compound 449710]', 20),
  ('445522 (antisense eG*e[5mC]*eA*e[5mC]*eA*dG*dT*dT*dT*d[5mC]*dT*dG*dG*e[5mC]*eA*eG*eG*e[5mC]) [compound 445522]', 73);

// next entry
q: Could you tell me which Inhibition of Factor 11 protein relative to the PBS control (percentage reduction) is on file for 449709 (antisense eG*e[5mC]*eA*e[5mC]*dA*dG*dT*dT*dT*d[5mC]*dT*dG*dG*d[5mC]*eA*eG*eG*e[5mC]) [compound 449709] ?
a: 46

----------
Experiment: Body and organ weights of cynomolgus monkeys (Example 46)
Type: in vivo
Details: day 36
Procedure: Groups, each consisting of two male and two female monkeys, were injected subcutaneously with 25 mg/kg of ISIS 416850, ISIS 449709, ISIS 445522, ISIS 449710, ISIS 449707, ISIS 449711, ISIS 449708, 416858, and ISIS 445531. […] Body weights were taken 14 days and 7 days before the start of treatment and were then measured weekly throughout the treatment period. […]
Strand notation (5' to 3'): a small letter for the sugar, then the base; units joined by * are phosphorothioate-linked, units joined directly phosphodiester-linked; [ ] holds rarer units or linkages, { } end groups; capitals alone tell only the bases. e = 2'-O-(2-methoxyethyl) (MOE); [5mC] = 5-methylcytosine; d = 2'-deoxy (DNA)
Consider the following substances and their measured body weight readings.
Write down the numeric answer in g and omit the unit.

// below: answered substances
INSERT INTO assay_data (substance, numeric_value) VALUES
  ('ISIS 416850: MOE gapmer, nucleobases 1275 to 1318 of SEQ ID NO: 1 (Table 8) (antisense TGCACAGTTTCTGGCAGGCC; MOE gapmer, wing and gap sizes not given here)', 2136),
  ('ISIS 449709: 3-8-3, 4-8-4, 2-10-2, 3-10-3 or 4-10-4 MOE microwalk gapmer (Table 46) (antisense eG*e[5mC]*eA*e[5mC]*dA*dG*dT*dT*dT*d[5mC]*dT*dG*dG*d[5mC]*eA*eG*eG*e[5mC])', 2064);

q: Could you tell me which body weight is on file for ISIS 449711: 3-8-3, 4-8-4, 2-10-2, 3-10-3 or 4-10-4 MOE microwalk gapmer (Table 46) (antisense eA*e[5mC]*dA*dG*dT*dT*dT*d[5mC]*dT*dG*dG*d[5mC]*eA*eG) ?
a: 2227

q: Could you tell me which body weight is on file for ISIS 449707: 3-8-3, 4-8-4, 2-10-2, 3-10-3 or 4-10-4 MOE microwalk gapmer (Table 46) (antisense e[5mC]*eA*e[5mC]*eA*dG*dT*dT*dT*d[5mC]*dT*dG*dG*e[5mC]*eA*eG*eG) ?
a: 2158

The origin of these recorded values is patent US20230263822A1.
